System: MDR1-MDCK cell monolayers
Assay: MDCK-MDR1 permeability assay (BBB penetration potential)
Type: in vitro ADME
Conditions: dog, MDCK-MDR1, 120 min, 5 μM, pH 7.4
Recorded MDCK-MDR1: % Recov B-A for the following molecules
# unit: % | format: bare number

Recorded MDCK-MDR1: % Recov B-A, per entry:
[
  {
    "molecule": "Oc1cc(-n2cccn2)ccc1-c1ccc(O[C@H]2C[C@@H]3CC[C@@H](N3)[C@H]2F)nn1 (single isomer, unassigned) [35-ENT2]",
    "measured target": "MDR1-MDCK cell monolayers",
    "outcome measure": "MDCK-MDR1: % Recov B-A",
    "measured number": 68
  },
  {
    "molecule": "Oc1cc(-c2cn[nH]c2)ccc1-c1ccc(O[C@H]2C[C@@H]3CC[C@@H](N3)[C@H]2F)nn1 (single isomer, unassigned) [42-ENT1]",
    "measured target": "MDR1-MDCK cell monolayers",
    "outcome measure": "MDCK-MDR1: % Recov B-A",
    "measured number": 84
  },
  {
    "molecule": "Oc1cc(-c2ccc3cncn3c2)ccc1-c1ccc(O[C@@H]2C[C@H]3CCC[C@H](N3)[C@@H]2F)nn1 (single isomer, unassigned) [85-ENT1]",
    "measured target": "MDR1-MDCK cell monolayers",
    "outcome measure": "MDCK-MDR1: % Recov B-A",
    "measured number": 66
  },
  {
    "molecule": "Cc1cc(-c2ccc(-c3ccc(O[C@@H]4C[C@H]5CCC[C@H](N5)[C@@H]4F)nn3)c(O)c2)ccn1 (single isomer, unassigned) [88-ENT1]",
    "measured target": "MDR1-MDCK cell monolayers",
    "outcome measure": "MDCK-MDR1: % Recov B-A",
    "measured number": 64
  }
]

# returns recorded MDCK-MDR1: % Recov B-A (system: MDR1-MDCK cell monolayers) for Cn1ccc2cc(-c3ccc(O[C@@H]4C[C@H]5CCC[C@H](N5)[C@@H]4F)nn3)c(O)cc2c1=O (single isomer, unassigned) [125-ENT2]
87

Query Cn1cc(-c2ccc(-c3ccc(O[C@@H]4C[C@H]5CC[C@H](N5)[C@@H]4F)nn3)c(O)c2)cn1 (single isomer, unassigned) [60-ENT1] next
84

Query Oc1cc(-c2nnco2)c(F)cc1-c1ccc(O[C@H]2C[C@@H]3CCC[C@@H](N3)[C@H]2F)nn1 (single isomer, unassigned) [143-ENT1] next
93

Query O=c1cc(-c2ccc(-c3ccc(O[C@H]4C[C@@H]5CCC[C@@H](N5)[C@H]4F)nn3)c(O)c2)cc[nH]1 (single isomer, unassigned) [53-ENT2] next
103
